Numbers sourced from patent US10787413B2.

system: HCT-116 colon cancer cell; assay: MTT cell viability assay, HCT-116 colon cancer cell; assay type: cell-based; details: Homo sapiens; HCT-116, treated 48 hours; read-out: IC50 48 hours
pIC50: −log10 of the molar value.
reported-endpoint: pIC50

query-smiles | pIC50
CCc1cc(/C=C/C(=O)CC(=O)/C=C/c2cc(CC)c(OC(=O)C(C)(CO)CO)c(CC)c2)cc(CC)c1OC(=O)C(C)(CO)CO | 5.44
COc1ccc(/C=C/C(=O)C(C)(C)C(=O)/C=C/c2ccc(OC)c(OC(=O)C(C)(CO)CO)c2)cc1OC(=O)C(C)(CO)CO | 5.57

P: CC(CO)(CO)C(=O)Oc1ccc(/C=C/C(=O)C(C)(C)C(=O)/C=C/c2ccc(OC(=O)C(C)(CO)CO)cc2)cc1
Q: COc1ccc(/C=C/C(O)=C/C(=O)/C=C/c2ccc(OC(=O)C(C)(CO)CO)c(OC)c2)cc1OC
Asked: Lab log: flag the item ( P or Q ) with the smaller pIC50 figure. Which one? Tell me its label.
Given back: Q
